conditions: buffer, 4 h
Cut-off 3 on -log(solubility), inclusive. At or above means TRUE; below means FALSE.

* CC(=O)Nc1ccc(O)cc1 | FALSE
* CCCC1O[C@@H]2C[C@H]3[C@@H]4CCC5=CC(=O)C=C[C@]5(C)[C@H]4[C@@H](O)C[C@]3(C)[C@]2(C(=O)CO)O1 (stereo partly specified) [BUDESONIDE] | TRUE
* CC1(C)[C@@H](O)CC[C@]2(C)[C@H]3C(=O)C=C4[C@@H]5C[C@@](C)(C(=O)O)CC[C@]5(C)CC[C@@]4(C)[C@]3(C)CC[C@@H]12 | TRUE
* COc1cc2c(c(OC)c1OC)-c1ccc(OC)c(=O)cc1[C@@H](NC(C)=O)CC2 | TRUE
* NC(=O)N1c2ccccc2C=Cc2ccccc21 [CARBAMAZEPINE] | TRUE
* CO[C@H]1/C=C/O[C@@]2(C)Oc3c(C)c(O)c4c(O)c(c(/C=N/N5CCN(C)CC5)c(O)c4c3C2=O)NC(=O)/C(C)=C\C=C\[C@H](C)[C@H](O)[C@@H](C)[C@@H](O)[C@@H](C)[C@H](OC(C)=O)[C@@H]1C | TRUE
